- Test settings: log kw^IAM – clog kw^IAM
- Description: Since polarity is a molecular property often related to solubility,[13] experimental descriptors of polarity (Δ log kw^IAM and EPSA) were also determined. […] EPSA quantifies the polarity of a molecule using a supercritical fluid chromatographic (SFC) method.[32]
Metric name: ΔLog kw IAM

[[record]]
compound = "Cc1ncsc1-c1ccc(CNC(=O)[C@@H]2C[C@H](O)CN2C(=O)[C@@H](NC(=O)COCCOCCOCCOCCOCCOCC(=O)N[C@H](C(=O)N2C[C@@H](O)C[C@H]2C(=O)NCc2ccc(-c3scnc3C)cc2)C(C)(C)C)C(C)(C)C)cc1 [CMP98]"
reported_measurement = "high"

[[record]]
compound = "COc1cc(-c2cn(C)c(=O)c3cc(C(=N)NC4CCS(=O)(=O)CC4)sc23)ccc1OCC(=O)NCCCCNC(=O)COc1cccc2c1C(=O)N(C1CCC(=O)NC1=O)C2=O (stereo not drawn) [BRD9 degrader-1]"
reported_measurement = "high"

[[record]]
compound = "Cc1ncsc1-c1ccc(CNC(=O)[C@@H]2C[C@@H](O)CN2C(=O)[C@@H](NC(=O)COCCOCCOCCOCCOCCOCC(=O)N[C@H](C(=O)N2C[C@H](O)C[C@H]2C(=O)NCc2ccc(-c3scnc3C)cc2)C(C)(C)C)C(C)(C)C)cc1 [CM11]"
reported_measurement = "high"

